Entries get a class label from measured logP. See ranges: band A: < 0.8; band B: ≥ 0.8 and < 2; band C: ≥ 2

>>> category_label("N=c1ccn(O)c2ccccc12")
"band A"
>>> category_label("O=C(O)c1ccc(F)cc1")
"band C"
>>> category_label("Nc1ccc(S(=O)(=O)Nc2nccs2)cc1")
"band A"
>>> category_label("CN1CCC(=C2c3ccccc3C=Cc3ccccc32)CC1")
"band C"
>>> category_label("COc1ccc(N)cc1")
"band B"

QUERY: In plain terms, what class is "COc1ccc(O)cc1" ?
RESULT: band B

QUERY: Also need O=C(NC(O)Cc1ccc([N+](=O)[O-])cc1)C(F)(F)F (stereo not given) , thanks.
RESULT: band B

QUERY: Also need "NS(=O)(=O)c1cc2c(cc1Cl)N=CNS2(=O)=O" , thanks.
RESULT: band A

Entry source: the SangsterLogP compilation
